Tested on: DU-145
experiment: NCI tumour cell line growth inhibition, 48 h
Activity calls are given as the source filed them. No stated cut-off is given here; in the data, active = GI50 up to about 1.1 µM and inactive = higher.
One label from this list, please: active, inactive

[in] Could you kindly confirm the outcome this assay logged for COC1=C(NC(C)=O)C(=O)c2nc3n(c2C1=O)CCC3 ?
[out] inactive

[in] What classification did CC(=O)c1cc(I)c(O)c2ncccc12 end up with in this test?
[out] inactive

[in] Tell me the assay call for CCN(CC)C(=S)N/N=C(\C)c1cccc(C)n1 please.
[out] active

[in] GET /call?item= C#CCSC(C=C=C)P(=O)(OC(C)C)OC(C)C (centres undefined) returns the recorded outcome of this test.
[out] inactive

[in] Give the logged outcome of this assay for the following molecule: COC(=O)c1cc2c(cc1CC(Cc1ccc3c(c1)CCCC3)C(=O)OC)CCCC2 (centres undefined)
[out] inactive

[in] Just curious, what result did C=C(C)C1Cc2c(cc3c(c2O)c(=O)c2ccccc2n3C)O1 (centres undefined) get here?
[out] inactive

[in] State the result this test recorded for CC1(C)OC(CCO)CN1C(=O)OCc1ccccc1 (centres undefined) .
[out] inactive

[in] Per the assay record, what outcome was assigned to O=C(O)Cc1ccc2nc(COC(=O)c3ccccc3)sc2c1 ?
[out] inactive

[in] Look up the recorded call for Cc1ccc(S(=O)(=O)N/N=C2/C3CCC(C3)C2c2ccccc2)cc1 (centres undefined) in this test.
[out] inactive
